Each entry below carries its reported clearance.
Assay: in vivo
Details: Sprague-Dawley, rat, iv, 0.5 mg/kg
Please append the unit to your numeric answer.

The reported value for CO[C@H]1/C=C/C[C@H](C)[C@@H](C)S(=O)(=O)NC(=O)c2ccc3c(c2)N(C[C@@H]2CC[C@H]21)C[C@@]1(CCCc2cc(Cl)ccc21)CO3 in terms of clearance is 1 mL/min/kg

----------
Assay: in vivo
Details: Beagle, dog, po, 2 mg/kg
endpoint: bioavailability (%)
Provide the reading as a plain figure in %.

The reported value for CO[C@H]1/C=C/C[C@H](C)[C@@H](C)S(=O)(=O)NC(=O)c2ccc3c(c2)N(C[C@@H]2CC[C@H]21)C[C@@]1(CCCc2cc(Cl)ccc21)CO3 in terms of bioavailability is 27

----------
Test: in vivo
Conditions: Sprague-Dawley, rat, iv, 0.5 mg/kg
Each entry below carries its reported half-life.
Provide the reading as a plain figure in h.

Examples with answers:
>>> recorded_number("CN(C)C(=O)CO[C@H]1/C=C/CCN(C)C(=O)C[C@](O)(C(=O)NS(=O)(=O)N(C)C)c2ccc3c(c2)N(C[C@@H]2CC[C@H]21)C[C@@]1(CCCc2cc(Cl)ccc21)CO3")
3.1
>>> recorded_number("COC(=O)[C@@]1(O)CC(=O)N(C)CC/C=C/[C@H](OC)[C@@H]2CC[C@H]2CN2C[C@@]3(CCCc4cc(Cl)ccc43)COc3ccc1cc32")
2.5

The reported value for COC1CN(CCO[C@H]2/C=C/CCN(C)C(=O)C[C@](O)(C(=O)NS(=O)(=O)N(C)C)c3ccc4c(c3)N(C[C@@H]3CC[C@H]32)C[C@@]2(CCCc3cc(Cl)ccc32)CO4)C1 in terms of half-life is 6.3

The reported value for CN1CC/C=C/[C@H](OCCN2CCS(=O)(=O)CC2)[C@@H]2CC[C@H]2CN2C[C@@]3(CCCc4cc(Cl)ccc43)COc3ccc(cc32)[C@@](O)(C(=O)NS(=O)(=O)N(C)C)CC1=O in terms of half-life is 2.2

The reported value for CO[C@H]1/C=C/C[C@H](C)[C@@H](C)S(=O)(=O)NC(=O)c2ccc3c(c2)N(C[C@@H]2CC[C@H]21)C[C@@]1(CCCc2cc(Cl)ccc21)CO3 in terms of half-life is 18.2

----------
Experiment: in vivo
Conditions: Beagle, dog, iv, 0.5 mg/kg
endpoint: clearance (L/h/kg)
Provide the reading as a plain figure in L/h/kg.

The reported value for CO[C@H]1/C=C/C[C@H](C)[C@@H](C)S(=O)(=O)NC(=O)c2ccc3c(c2)N(C[C@@H]2CC[C@H]21)C[C@@]1(CCCc2cc(Cl)ccc21)CO3 in terms of clearance is 0.02

----------
Each entry below carries its reported remaining at 0.5 h, 1 µM.
Assay: physchem
Conditions: simulated gastric fluid, pH 1.7
Provide the reading as a plain figure in %.

>>> recorded_number("CO[C@H]1/C=C/C[C@H](C)[C@@H](C)S(=O)(=O)NC(=O)c2ccc3c(c2)N(C[C@@H]2CC[C@H]21)C[C@@]1(CCCc2cc(Cl)ccc21)CO3")
90

Read the next record carefully.
The reported value for CO[C@H]1/C=C/CCN(C)C(=O)C[C@](O)(C(=O)O)c2ccc3c(c2)N(C[C@@H]2CC[C@H]21)C[C@@]1(CCCc2cc(Cl)ccc21)CO3 in terms of remaining at 0.5 h, 1 µM is 49

----------
Experiment: in vivo
Details: Sprague-Dawley, rat, po, 2 mg/kg
Each entry below carries its reported bioavailability.
Provide the reading as a plain figure in %.

>>> recorded_number("CO[C@H]1/C=C/CCN(C)C(=O)C[C@](O)(C(=O)NS(C)(=O)=O)c2ccc3c(c2)N(C[C@@H]2CC[C@H]21)C[C@@]1(CCCc2cc(Cl)ccc21)CO3")
8

The reported value for CN1CC/C=C/[C@H](OCCN2CCOCC2)[C@@H]2CC[C@H]2CN2C[C@@]3(CCCc4cc(Cl)ccc43)COc3ccc(cc32)[C@@](O)(C(=O)NS(=O)(=O)N(C)C)CC1=O in terms of bioavailability is 9

The reported value for CO[C@H]1/C=C/CCN(C)C(=O)C[C@](O)(C(=O)O)c2ccc3c(c2)N(C[C@@H]2CC[C@H]21)C[C@@]1(CCCc2cc(Cl)ccc21)CO3 in terms of bioavailability is 0

The reported value for CN1CC/C=C/[C@H](OCCCN2CC(F)(F)C2)[C@@H]2CC[C@H]2CN2C[C@@]3(CCCc4cc(Cl)ccc43)COc3ccc(cc32)[C@@](O)(C(=O)NS(=O)(=O)N(C)C)CC1=O in terms of bioavailability is 52

----------
Assay: physchem
Conditions: simulated gastric fluid, pH 1.7
Each entry below carries its reported remaining at 1 h, 1 µM.
Provide the reading as a plain figure in %.

>>> recorded_number("CO[C@H]1/C=C/C[C@H](C)[C@@H](C)S(=O)(=O)NC(=O)c2ccc3c(c2)N(C[C@@H]2CC[C@H]21)C[C@@]1(CCCc2cc(Cl)ccc21)CO3 [TAPOTOCLAX]")
84

Read the next record carefully.
The reported value for CO[C@H]1/C=C/CCN(C)C(=O)C[C@](O)(C(=O)O)c2ccc3c(c2)N(C[C@@H]2CC[C@H]21)C[C@@]1(CCCc2cc(Cl)ccc21)CO3 in terms of remaining at 1 h, 1 µM is 26

----------
Assay: in vivo
Settings: Sprague-Dawley, rat, iv, 0.5 mg/kg
Each entry below carries its reported log10(clearance).
Recall that a logarithmic scale is used here: each number is log10 of clearance in mL/min/kg.

>>> recorded_number("CN1CC/C=C/[C@H](OCCOCC(F)F)[C@@H]2CC[C@H]2CN2C[C@@]3(CCCc4cc(Cl)ccc43)COc3ccc(cc32)[C@@](O)(C(=O)NS(=O)(=O)N(C)C)CC1=O")
-0.08
>>> recorded_number("CN1CC/C=C/[C@H](OCCN2CCS(=O)(=O)CC2)[C@@H]2CC[C@H]2CN2C[C@@]3(CCCc4cc(Cl)ccc43)COc3ccc(cc32)[C@@](O)(C(=O)NS(=O)(=O)N(C)C)CC1=O")
1.78
>>> recorded_number("COC(=O)[C@@]1(O)CC(=O)N(C)CC/C=C/[C@H](OC)[C@@H]2CC[C@H]2CN2C[C@@]3(CCCc4cc(Cl)ccc43)COc3ccc1cc32")
1.64
>>> recorded_number("CN1CC/C=C/[C@H](OCCCN2CC(F)(F)C2)[C@@H]2CC[C@H]2CN2C[C@@]3(CCCc4cc(Cl)ccc43)COc3ccc(cc32)[C@@](O)(C(=O)NS(=O)(=O)N(C)C)CC1=O")
0.52

Read the next record carefully.
The reported value for CO[C@H]1/C=C/CCN(C)C(=O)C[C@](O)(C(=O)NS(C)(=O)=O)c2ccc3c(c2)N(C[C@@H]2CC[C@H]21)C[C@@]1(CCCc2cc(Cl)ccc21)CO3 in terms of log10(clearance) is 1.43

----------
Assay: in vivo
Conditions: athymic nude, mouse, plasma, po, 60 mg/kg
endpoint: concentration at 6 h (µM)
Provide the reading as a plain figure in µM.

The reported value for CO[C@H]1/C=C/C[C@H](C)[C@@H](C)S(=O)(=O)NC(=O)c2ccc3c(c2)N(C[C@@H]2CC[C@H]21)C[C@@]1(CCCc2cc(Cl)ccc21)CO3 [TAPOTOCLAX] in terms of concentration at 6 h is 70.9

----------
Each entry below carries its reported bioavailability.
Assay: in vivo
Settings: Sprague-Dawley, rat, po, 2 mg/kg
Provide the reading as a plain figure in %.

>>> recorded_number("CN1CC/C=C/[C@H](OCCOCC(F)F)[C@@H]2CC[C@H]2CN2C[C@@]3(CCCc4cc(Cl)ccc43)COc3ccc(cc32)[C@@](O)(C(=O)NS(=O)(=O)N(C)C)CC1=O")
41
>>> recorded_number("COC1CN(CCO[C@H]2/C=C/CCN(C)C(=O)C[C@](O)(C(=O)NS(=O)(=O)N(C)C)c3ccc4c(c3)N(C[C@@H]3CC[C@H]32)C[C@@]2(CCCc3cc(Cl)ccc32)CO4)C1")
6
>>> recorded_number("COC(=O)[C@@]1(O)CC(=O)N(C)CC/C=C/[C@H](OC)[C@@H]2CC[C@H]2CN2C[C@@]3(CCCc4cc(Cl)ccc43)COc3ccc1cc32")
2
>>> recorded_number("CN1CC/C=C/[C@H](OCCN2CCS(=O)(=O)CC2)[C@@H]2CC[C@H]2CN2C[C@@]3(CCCc4cc(Cl)ccc43)COc3ccc(cc32)[C@@](O)(C(=O)NS(=O)(=O)N(C)C)CC1=O")
6

The reported value for CO[C@H]1/C=C/C[C@H](C)[C@@H](C)S(=O)(=O)NC(=O)c2ccc3c(c2)N(C[C@@H]2CC[C@H]21)C[C@@]1(CCCc2cc(Cl)ccc21)CO3 in terms of bioavailability is 34
